B1: RIPK4 (parent)
chain: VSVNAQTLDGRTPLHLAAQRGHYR

Variants of: B1
protocol text: protein stability index of a GFP-peptide fusion (GPS, HEK-293T) (PSI 1-6); higher = more stable;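 further: lentivirally expressed fusions sorted by FACS into six bins by GFP to DsRed ratio, PSI derived from sequencing read proportions per bin multiplied by bin number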
study conditions: c terminus: a fixed tail appended
Label yes (1) for high-side protein stability index (at or above 3) and no (0) for low-side protein stability index (below it).

Enquiry: Tell me whether protein stability index is at least 3 here: VSVNAQTLDGRTPLHLAAQRMHYR
Return: no (0)

Enquiry: In plain terms: is recorded protein stability index at least 3 for VSVNAQTLDGRTPWHLAAQRGHYR ?
Return: no (0)

Enquiry: Tell me whether protein stability index is at least 3 here: VSVNAQTLDGRTPLHLAAQCGHYR
Return: no (0)

Enquiry: Check the entry VSVNAQTLDGRTYLHLAAQRGHYR : does protein stability index equal or exceed 3?
Return: no (0)

Enquiry: Given VSVNAQTQDGRTPLHLAAQRGHYR , state whether its protein stability index is at least 3.
Return: yes (1)

Enquiry: Is protein stability index at least 3? Consider VSVNAQTLDGRTPTHLAAQRGHYR
Return: yes (1)

Enquiry: Quick check, protein stability index >= 3? VSVNAQTLDGRTPLHLAAQRYHYR
Return: no (0)

Enquiry: Check if protein stability index >= 3 (inclusive). Item: VSVNAQTLDGRAPLHLAAQRGHYR
Return: yes (1)

Enquiry: For this variant, is measured protein stability index 3 or higher? VSVAAQTLDGRTPLHLAAQRGHYR
Return: yes (1)

Enquiry: Confirm if protein stability index reported for the variant VSVVAQTLDGRTPLHLAAQRGHYR is 3 or above.
Return: no (0)

Enquiry: Could you verify whether the entry VSVNAQTLDGRTPLHLAAQRGHYM shows protein stability index of no less than 3?
Return: no (0)

Enquiry: Is protein stability index for VSVNAQTLDGRTPLHLAAQRGAYR at or above 3?
Return: yes (1)

Enquiry: Please tell me: is the variant VSVNAQTLDGRTPLHLAAQRGHYG at or over 3 in terms of protein stability index?
Return: yes (1)

Enquiry: Does protein stability index meet or surpass 3 for VSQNAQTLDGRTPLHLAAQRGHYR ?
Return: yes (1)

Enquiry: State whether the measured protein stability index reaches 3, counting equality as reaching it, for VSVNAQELDGRTPLHLAAQRGHYR
Return: yes (1)

Enquiry: Does the reported protein stability index for VSVNAQTRDGRTPLHLAAQRGHYR fall at or above the 3 mark?
Return: yes (1)

Enquiry: Does the variant VSVNAQTLDGDTPLHLAAQRGHYR have recorded protein stability index that is 3 or more?
Return: yes (1)

Enquiry: Answer whether protein stability index of VSVNAQTLDGRTPLHLAAQRGHPR is greater than or equal to 3.
Return: yes (1)

Enquiry: Textbook exercise: given the entry VWVNAQTLDGRTPLHLAAQRGHYR , state whether its protein stability index is greater than or equal to 3.
Return: no (0)
